Tested on: K562 CRISPRi cells
Assay: Constant region variant library pooled growth screen, K562
Format: cell-based, human
Conditions: sgRNA constant region variants; activity relative to the original, un-modified constant region cr995
observationType: Mean relative activity
Give the figure only, with no unit attached.

Mean relative activity reading for cr007 (nucleic acid, listed as DNA, chemistry not fully specified) guide: GTATAAGAGCTAAGCTGGAAACAGCATAGCAAGTTTAAATAAGGCTAGTCCGTTATCAACTTGAAAAAGTGGCACCGAGTCGGTGCT : 0.03285

Input cr043 (nucleic acid, listed as DNA, chemistry not fully specified) guide: GGTTTAGAGCTAAGCTGGAAACAGCATAGCAAGTTTAAATAAGGCTAGTCCGTTATCAACTTGAAAAAGTGGCACCGAGTCGGTGCT . Output Mean relative activity: 0.0245

Entry cr580 (nucleic acid, listed as DNA, chemistry not fully specified) guide: GTTTAAGAGCTAAGCTGGAAACAGCATAGCAAGTTTAGATAAGGCTAGTCCGTTATCAACTTGAAAAAGTGGCACCGAGTCGGTGCT — recorded Mean relative activity = 0.1076

For this molecule ( cr549 (nucleic acid, listed as DNA, chemistry not fully specified) guide: GTTTAAGAGCTAAGCTGGAAACAGCATAGCAAGTTTAAATAAGGCTAGTCCGTTATCAACCTGAAAAGGTGGCACCGAGTCGGTGCT ), measured Mean relative activity is 1.051
